Measurement label: intrinsic clearance, rat liver microsomes (L/h/kg)

Worked examples, 8 compounds total:
COc1cc(CNc2nc3ccccc3nc2C)ccn1: 7.44
Cc1ccc(Cn2nccc2NC(=O)c2ccncc2)o1: 12.8
N#Cc1ccc(CN2CC(n3cccn3)C2)cc1: 1.24
Cc1cccc(-c2nc(CN(Cc3cnn(C)c3)C(C)C)c(C)o2)c1: 274
Cc1nc2ccccn2c1CC(=O)NCCCSc1ccccc1: 75.8
COCc1ccccc1CNc1ccc2nnc(-c3ccccc3)n2n1: 25
CN1CCCn2c1cc(OCc1cc(F)c(Oc3ccc(C(F)(F)F)nc3)c(F)c1)nc2=O: 7.56
Cc1ccnc(-n2nccc2NC(=O)N2CCCN(C)CC2)c1: 10.2

[1] COc1cccc(CN(C)c2ncnc3c2CN(C)CC3)c1
[2] O=C(NC1CCN(c2ccc(OC(F)(F)F)cc2)CC1)N1CCC1
Req: Input pair: 1 , 2 . Output: entry with lower intrinsic clearance, rat liver microsomes. Indicate your choice by writing its label.
Resp: 2

Each recorded value in this set is attributed to the Biogen ADME set (Fang et al. 2023).
